assay: Test 8: Fish Toxicity; assay type: in vivo; settings: carp, water; concentration at which 1/2 of the test fishes were killed within 48 hours; read-out: Fish Toxicity, TLm48
endpoint.name: LC50 at 48 h

CC(C)(COCc1cccc(Oc2ccccc2)c1)c1ccc(Br)cc1 ... > 1 µg/mL
CCCCOc1ccc(C(C)(C)COCc2cccc(Oc3ccccc3)c2)cc1 ... > 1 µg/mL
COc1ccc(C(C)(C)COCc2cccc(Oc3ccccc3)c2)cc1 ... > 10 µg/mL

Parameters: items (list). Returns: LC50 at 48 h for each item.
1. CCC(C)(COCc1cccc(Oc2cccc(Cl)c2)c1)c1cccc(C)c1 (centres unmarked)
2. CC(C)(COCc1cccc(Oc2ccccc2)c1)c1ccc2ccccc2c1
3. CC(C)(COCc1cccc(Cc2ccccc2)c1)c1ccc(Cl)cc1

Response:
["> 10 µg/mL", "> 10 µg/mL", "> 10 µg/mL"]

State the recorded LC50 at 48 h for every item in the following list.
1. CC1(C)C(C=C(Cl)Cl)C1C(=O)OCc1cccc(Oc2ccccc2)c1 (centres unmarked) [(i), Permethrin, reference compound]
2. CCC(C)(COCc1cccc(Oc2ccc(F)cc2)c1)c1ccc(F)cc1 (centres unmarked)

Response:
1: < 0.005 µg/mL; 2: > 1 µg/mL

---

system: sensitive green rice leafhopper (collected at Chigasaki); assay: whole plant or invertebrate; format: in vivo; conditions: Nephotettix cincticeps; 20 ppm; sensitive female adults; 24 hours; read-out: Mortality (%), Green Rice Leafhopper Collected at Chigasaki
endpoint.name: mortality at 20 ppm (%)
Answers are plain numbers, in %.

Observe how each entry below is paired with its result.
CC(C)(COCc1cccc(Oc2ccc(Br)cc2)c1)c1ccc(OC(F)F)cc1 ... 100
COc1ccc(Oc2cccc(COCC(C)(C)c3ccc(Br)cc3)c2)cc1 ... 50
COc1ccc(C(C)(C)COCc2cccc(Oc3ccccc3)c2)cc1 ... 100
CC(C)(COCc1cccc(Oc2ccccc2)c1)c1ccc(Cl)cc1 ... 100
CCC(C)(COCc1cccc(Oc2ccccc2)c1)c1ccc(C)cc1 (centres unmarked) ... 80

# return mortality at 20 ppm for each item in the list
1. Cc1ccc2cc(C(C)(C)COCc3cccc(Oc4ccccc4)c3)ccc2c1
2. CC(C)(COCc1cccc(Oc2ccc(F)cc2)c1)c1ccc(F)c(Cl)c1
3. CC(C)(CSCc1cccc(Oc2ccc(Br)cc2)c1)c1ccc(Cl)cc1

Response:
100
100
50

Please supply mortality at 20 ppm for each of the following items, keeping them in order.
1. CC(C)(COCc1cccc(Oc2ccccc2)c1)c1ccc(Cl)c(Cl)c1
2. CC(C)c1ccc(C(C)(C)COCc2cccc(Oc3ccccc3)c2)cc1
3. Cc1ccc(C(C)(C)COCc2cccc(Oc3ccc(F)cc3)c2)cc1

Response:
[100, 95, 100]

Give mortality at 20 ppm for each listed item.
1. Cc1ccc(C(C)(C)COCc2cccc(Oc3ccc(Br)cc3)c2)cc1
2. CC(C)(COCc1cccc(Oc2ccc(Br)cc2)c1)c1cccc(C(F)(F)F)c1
3. CC(C)(COCc1cccc(Oc2ccc(F)cc2)c1)c1ccc(F)cc1
4. CCOc1ccc(C(C)(C)COCc2cccc(Oc3ccccc3)c2)cc1Cl

Response:
[100, 95, 100, 100]

Quick one: give me mortality at 20 ppm for each item below, same order please.
1. CC(C)(COCc1cccc(Cc2ccccc2)c1)c1ccc(Cl)cc1
2. CC(C)(COCc1cccc(Oc2ccc(Br)cc2)c1)c1ccc(Cl)cc1
3. CC(C)Oc1ccc(C(C)(C)COCc2cccc(Oc3ccccc3)c2)cc1
4. CCOC(=O)c1ccc(C(C)(C)COCc2cccc(Oc3ccccc3)c2)cc1

Response:
1. 50
2. 50
3. 100
4. 100

Please look at the items below and tell me mortality at 20 ppm for each one, in order.
1. COc1ccc(C(C)(C)COCc2cccc(Oc3ccc(F)cc3)c2)cc1
2. CCC(C)(COCc1cccc(Oc2ccccc2)c1)c1ccc(Cl)c(Cl)c1 (centres unmarked)
3. CC(C)(COCc1cccc(Oc2ccccc2)c1)c1ccc(OC2CCCC2)cc1
4. CC(C)(COCc1cccc(Oc2ccccc2)c1)c1ccccc1
5. CC(C)(CSCc1cccc(Oc2ccccc2)c1)c1ccc(Cl)cc1

Response:
1: 100; 2: 90; 3: 100; 4: 100; 5: 50

Please state, for each entry, its recorded mortality at 20 ppm.
1. CC(C)(COCc1cccc(Oc2ccccc2)c1)c1cccc(C(F)(F)F)c1
2. CC(C)(COCc1cccc(Oc2ccccc2)c1)c1ccc(OC(F)F)cc1

Response:
1. 100
2. 100

---

tested on: tobacco cutworm; test: Test 1: Effect on Tobacco Cutworm (leaf immersion), mortality after 24 hours; type: in vivo; settings: 20 ppm, second-instar larvae, 25° C
Answer each item with its documented mortality at 20 ppm.
Answers are plain numbers, in %.

C=COc1ccc(C(C)(C)COCc2cccc(Oc3ccccc3)c2)cc1 ... 90
CCSc1ccc(C(C)(C)COCc2cccc(Oc3ccccc3)c2)cc1 ... 80
CCOc1ccc(Oc2cccc(COCC(C)(C)c3ccc(Cl)cc3)c2)cc1 ... 100
CCOc1ccc(C(C)(C)COCc2cccc(Oc3ccccc3)c2)cc1OC ... 100
CCOc1ccc(C(C)(C)COCc2cccc(Oc3ccccc3)c2)cc1C ... 100

Would you mind giving mortality at 20 ppm for every compound in the list below?
1. CC(=O)c1ccc(C(C)(C)COCc2cccc(Oc3ccccc3)c2)cc1
2. CC(C)(COCc1cccc(Oc2ccccc2)c1)c1ccc(OC(F)F)cc1
3. CC(C)(COCc1cccc(Oc2ccc(F)cc2)c1)c1cccc(C(F)(F)F)c1
4. CC(C)(COCc1cccc(Oc2ccccc2)c1)c1ccc(OCCCl)cc1

Response:
1: 80; 2: 100; 3: 80; 4: 100
